Cited source for all entries: patent US20070092518A1

target: T1, human tumor necrosis factor-α (rHuTNF-alpha, Biosource) (human, UniProt P01375 77-233); assay: solid-phase ELISA, Fab lysate on coated rHuTNF-alpha
T1 construct: Bought recombinant protein coated on ELISA plates; The TNFα of the Biacore assay is not described further; also called TNFα; human TNFα
T1 sequence (P01375 77-233 limits assumed): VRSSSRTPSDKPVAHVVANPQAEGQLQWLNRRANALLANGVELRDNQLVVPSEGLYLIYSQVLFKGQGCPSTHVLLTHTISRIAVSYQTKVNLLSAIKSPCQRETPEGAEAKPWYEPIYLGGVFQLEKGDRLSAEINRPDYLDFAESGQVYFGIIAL
recorded endpoint: binding result

binder="SEQ ID NO 155 (Fab, V domains shown, Fab, E. coli lysate) VH: EVQLTESGGGLVQPGGSLRLSCAASQSTFSNHWMNWVRQAPGKGLEWIGEIRSKSSYSATSYAESVKGRFIISRDDNKNSLYLEMNSLKTEDTAEYYCARNYYGSTYDYWGQGTLVTVS VL: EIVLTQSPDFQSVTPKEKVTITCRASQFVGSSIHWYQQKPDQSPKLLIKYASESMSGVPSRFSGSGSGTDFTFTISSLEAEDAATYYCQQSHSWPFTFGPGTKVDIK" recorded_endpoint="binding result" recorded_value=binds
binder="SEQ ID NO 172 (Fab, V domains shown, Fab, E. coli lysate) VH: EVQLTESGGGLVQPGGSLRLSCAASGFTFSNHWMNWVRQAPGKGLEWIGEIRSKSIYGATHYAESVKGRFIISRDGNKNDLTLEMNSLKTEDTAEYYCAQNYYGSTPDYWGQGTLVTVS VL: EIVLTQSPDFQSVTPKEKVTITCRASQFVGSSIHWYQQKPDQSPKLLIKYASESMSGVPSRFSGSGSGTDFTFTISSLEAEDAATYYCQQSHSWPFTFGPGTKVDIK" recorded_endpoint="binding result" recorded_value=binds
binder="SEQ ID NO 7 (Fab, V domains shown, Fab, E. coli lysate) VH: EVQLTESGGGLVQPGGSLRLSCAASQFTFSNHWMNWVRQAPGKGLEWIGEIRSKSSNSATHYAESVKGRFIISRDDNKTDLYLEMNSLKTEDTAEYYCAQNYYGSTYDYWGQGTLVTVS VL: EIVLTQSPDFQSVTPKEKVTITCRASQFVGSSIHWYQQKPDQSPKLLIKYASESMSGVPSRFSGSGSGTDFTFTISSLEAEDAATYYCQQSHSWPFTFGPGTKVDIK" recorded_endpoint="binding result" recorded_value=binds
